biological target: Carbonic anhydrase 2 (Homo sapiens, UniProt P00918)
pKi: −log10 of the molar value.
TEST READOUT: pKi

INSERT INTO results (smiles_str, result) VALUES
  ('NS(=O)(=O)c1ccccc1N1C(=O)c2ccc([N+](=O)[O-])cc2C1=O', '< 5.00');

###

target: UniProt:O43570
Sequence (O43570 whole entry): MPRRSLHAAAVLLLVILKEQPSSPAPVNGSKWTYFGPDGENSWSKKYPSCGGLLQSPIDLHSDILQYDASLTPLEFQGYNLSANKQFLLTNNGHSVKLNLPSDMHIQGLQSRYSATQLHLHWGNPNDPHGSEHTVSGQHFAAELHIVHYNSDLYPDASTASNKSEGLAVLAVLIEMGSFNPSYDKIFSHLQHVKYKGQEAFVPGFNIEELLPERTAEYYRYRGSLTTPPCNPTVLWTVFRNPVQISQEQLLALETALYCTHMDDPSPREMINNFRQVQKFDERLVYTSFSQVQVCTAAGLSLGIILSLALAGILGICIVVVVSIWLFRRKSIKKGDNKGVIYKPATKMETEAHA
pKi: −log10 of the molar value.
TEST READOUT: pKi

INSERT INTO results (smiles_str, result) VALUES
  ('NS(=O)(=O)c1ccccc1N1C(=O)c2cccc([N+](=O)[O-])c2C1=O', '< 5.00');

The origin of these recorded values is ChEMBL document CHEMBL3112541.
